- EXPERIMENTAL_SYSTEM: FLuc-C-NLuc (firefly luciferase) (Photinus pyralis, UniProt P08659, form not given/L550V)
- Sequence (P08659 2-550 L550V, form open): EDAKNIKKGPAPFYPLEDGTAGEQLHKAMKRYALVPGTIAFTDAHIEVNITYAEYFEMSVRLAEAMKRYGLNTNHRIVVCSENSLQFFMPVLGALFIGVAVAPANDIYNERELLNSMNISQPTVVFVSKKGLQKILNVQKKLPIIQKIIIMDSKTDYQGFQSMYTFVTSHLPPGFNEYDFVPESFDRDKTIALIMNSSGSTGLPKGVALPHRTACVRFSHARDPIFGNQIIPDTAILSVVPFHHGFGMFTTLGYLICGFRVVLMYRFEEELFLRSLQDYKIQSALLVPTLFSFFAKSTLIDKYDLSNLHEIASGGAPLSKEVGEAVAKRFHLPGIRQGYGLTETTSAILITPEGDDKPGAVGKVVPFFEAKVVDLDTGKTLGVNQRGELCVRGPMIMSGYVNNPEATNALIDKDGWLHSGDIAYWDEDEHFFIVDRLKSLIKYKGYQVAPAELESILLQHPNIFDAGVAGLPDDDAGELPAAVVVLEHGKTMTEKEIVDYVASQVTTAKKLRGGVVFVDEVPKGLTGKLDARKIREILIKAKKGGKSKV
- ASSAY_EXPLANATION: SDR assay, FLuc-C-NLuc
- STUDY_CONDITIONS: - ATP
TEST_READOUT: Efficacy (%) FLuc-C-NLuc SDR (-ATP)

COMPOUND | UNIT_ANNOTATION | TEST_RESULT
O=C(NCCc1ccccc1)C1CCN(C(=O)c2ncn3c2COC(c2ccccc2)C3)CC1 (stereo not drawn) | % | 0.00
COc1ccc(C2Cn3cnc(C(=O)N4CCC(C(=O)NCCc5ccccc5)CC4)c3CO2)cc1 (stereo not drawn) | % | 0.00
Cc1ccc(C2Cn3cnc(C(=O)N4CCC(C(=O)NC5CCCC5)CC4)c3CO2)cc1 (stereo not drawn) | % | 0.00
O=C(NCc1ccc(Cl)cc1)C1CCN(C(=O)c2ncn3c2COC(c2ccccc2)C3)CC1 (stereo not drawn) | % | 0.00
O=C(NCc1ccccc1Cl)C1CCN(C(=O)c2ncn3c2COC(c2ccccc2)C3)CC1 (stereo not drawn) | % | 0.00
Cc1ccc(C2Cn3cnc(C(=O)N4CCC(C(=O)NCc5ccccc5F)CC4)c3CO2)cc1 (stereo not drawn) | % | 0.00
O=C(NCCc1ccccc1)C1CCN(C(=O)c2ncn3c2COC(c2ccc(F)cc2)C3)CC1 (stereo not drawn) | % | 0.00
O=C(Nc1ccc(F)c(F)c1)C1CCN(C(=O)c2ncn3c2COC(c2ccccc2)C3)CC1 (stereo not drawn) | % | 0.00
Cc1ccc(NC(=O)C2CCN(C(=O)c3ncn4c3COC(c3ccc(F)cc3)C4)CC2)c(F)c1 (stereo not drawn) | % | 0.00
O=C(NC1CCCCC1)C1CCN(C(=O)c2ncn3c2COC(c2ccc(F)cc2)C3)CC1 (stereo not drawn) | % | 0.00
CC(NC(=O)C1CCN(C(=O)c2ncn3c2COC(c2ccc(F)cc2)C3)CC1)c1ccc(F)cc1 (stereo not drawn) | % | 0.00
CC(CNC(=O)C1CCN(C(=O)c2ncn3c2COC(c2ccccc2)C3)CC1)c1ccccc1 (stereo not drawn) | % | 0.00
O=C(NCC1CCCCC1)C1CCN(C(=O)c2ncn3c2COC(c2ccc(Cl)cc2)C3)CC1 (stereo not drawn) | % | 0.00
O=C(NCc1ccc(F)cc1F)C1CCN(C(=O)c2ncn3c2COC(c2ccc(F)cc2)C3)CC1 (stereo not drawn) | % | 0.00
Cc1cccc(NC(=O)C2CCN(C(=O)c3ncn4c3COC(c3ccccc3)C4)CC2)c1 (stereo not drawn) | % | 0.00

----------
- EXPERIMENTAL_SYSTEM: FLuc-C-HiBiT (firefly luciferase) (Photinus pyralis, UniProt P08659, form not given/L550V)
- Sequence (P08659 2-550 L550V, form open): as above
- ASSAY_EXPLANATION: SDR assay, FLuc-C-HiBiT
- STUDY_CONDITIONS: 10 nM FLuc-C-HiBiT; normalized activity; Log [Compound], M -4.48
Binarize SDR + 10 mM ATP at 80; below is y, at or above is n.

MOLECULE | CLASSIFICATION
CC1CCCN(c2ncnc3c2cnn3-c2ccccc2)C1 (centres unmarked) | y
Fc1ccc(-c2cn3cc(Cc4ccccc4)sc3n2)cc1 | y
CNC(=O)c1cccc2c1CCN2C(=O)Nc1ccc(C)cc1 | n
COc1ccc(-c2nc(-c3ccc(C(=O)O)cc3)no2)cc1 | y
